TARGET_DESC: human full-length glucocorticoid receptor (Homo sapiens)
Construct: recombinantly expressed human full-length glucocorticoid receptor; purchased PanVera Co., Madison, Wis; P2816
Sequence (P04150 whole entry): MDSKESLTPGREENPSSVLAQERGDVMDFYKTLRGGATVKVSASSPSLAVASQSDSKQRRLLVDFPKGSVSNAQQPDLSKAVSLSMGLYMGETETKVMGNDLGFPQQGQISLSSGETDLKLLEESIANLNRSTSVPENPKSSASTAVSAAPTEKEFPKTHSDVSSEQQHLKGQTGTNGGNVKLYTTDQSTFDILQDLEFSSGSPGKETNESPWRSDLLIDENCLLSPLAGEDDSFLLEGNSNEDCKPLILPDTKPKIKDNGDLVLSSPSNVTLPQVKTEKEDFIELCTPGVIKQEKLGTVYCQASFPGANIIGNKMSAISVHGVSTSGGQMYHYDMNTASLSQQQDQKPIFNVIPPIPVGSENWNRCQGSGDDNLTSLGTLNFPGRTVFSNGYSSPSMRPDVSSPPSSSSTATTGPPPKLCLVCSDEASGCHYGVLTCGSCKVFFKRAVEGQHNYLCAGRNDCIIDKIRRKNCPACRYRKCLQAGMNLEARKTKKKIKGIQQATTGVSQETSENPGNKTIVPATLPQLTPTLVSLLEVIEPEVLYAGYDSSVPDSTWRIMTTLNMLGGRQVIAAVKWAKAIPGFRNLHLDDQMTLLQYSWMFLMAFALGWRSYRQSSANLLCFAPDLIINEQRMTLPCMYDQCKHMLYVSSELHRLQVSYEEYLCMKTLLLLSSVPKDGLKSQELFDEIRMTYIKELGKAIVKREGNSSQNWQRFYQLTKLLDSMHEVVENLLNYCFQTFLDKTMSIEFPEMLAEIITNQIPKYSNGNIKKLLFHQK
ASSAY_NAME: Glucocorticoid Receptor Binding Assay (II), fluorescence polarization competitor kit (Fluormone GS1)
DETAILS: cell lysate with recombinant human full-length GR
VALUE_TYPE: Ki (nM)

CC(C)CC(c1ccc2c(cnn2-c2ccc(F)cc2)c1)C(C)(C)CNC(=O)NC(C)(C)CO (stereo not shown) [Example 29]: 8
CC(C)(CNC(=O)CC(F)(F)F)[C@H](c1ccccc1)c1ccc2c(cnn2-c2ccc(F)cc2)c1 [(R)-17]: 12

1. CCCS(=O)(=O)NCC(C)(C)[C@@H](c1ccccc1)c1ccc2c(cnn2-c2ccc(F)cc2)c1 [Example 13]
2. CC(C)(C)CC(=O)NCC(C)(C)[C@@H](c1ccccc1)c1ccc2c(cnn2-c2ccc(F)cc2)c1 [Example 1]
QUERY: Compare 1 and 2 and name the one whose reported Ki is smaller. Answer by stating the label of the chosen item.
RESULT: 2
(2: 8.3 nM, 1: 19 nM)

---

TARGET_DESC: human glucocorticoid receptor (Homo sapiens)
Construct: purified human recombinant full-length glucocorticoid receptor (2 nM); purchased Invitrogen Part # 2893
Sequence (P04150 whole entry): as above
ASSAY_NAME: Glucocorticoid Receptor Binding Assay (I), fluorescence polarization competitor kit (Fluormone GS Red)
DETAILS: purified human recombinant full-length GR
VALUE_TYPE: Ki (nM)

As a guide, the following entries are already answered.
CC(O)C(C)(C)C(c1ccccc1)c1ccc2c(cnn2-c2ccc(F)cc2)c1 (mixture of isomers): 53
CC(C)NC(=O)NCC(C)(C)C(C)(C)c1ccc2c(cnn2-c2ccc(F)cc2)c1: 29
CC(C)CC(c1ccc2c(cnn2-c2ccc(F)cc2)c1)C(C)(C)CNC(=O)[C@H](O)C(C)(C)C (single isomer, unassigned) [Example 69 diastA]: 3.7
CC(C)CC(c1ccc2c(cnn2-c2ccc(F)cc2)c1)C(C)(C)CNC(=O)CC(C)(C)C (centres unmarked): 3
CC(C)(CNC(=O)CC(F)(F)F)C1(c2ccc3c(cnn3-c3ccc(F)cc3)c2)CCOCC1: 22
CCCS(=O)(=O)NCC(C)C(c1ccccc1)c1ccc2c(cnn2-c2ccc(F)cc2)c1 (centres unmarked): 1.2
CC(C)CC(c1ccc2c(cnn2-c2ccc(F)cc2)c1)C(C)(C)CNC(=O)N[C@H](C)c1cccc2ccccc12 (some centres unmarked): 8.9
CC(C)CC(c1ccc2c(cnn2-c2ccc(F)cc2)c1)C(C)(C)CNC(=O)N[C@H](C)CO (some centres unmarked): 2.1
CC(C)CC(c1ccc2c(cnn2-c2ccc(F)cc2)c1)C(C)(C)CNC(=O)N[C@@H]1c2ccccc2C[C@@H]1O (some centres unmarked): 2.2
CC(C)CC(c1ccc2c(cnn2-c2ccc(F)cc2)c1)C(C)(C)CNC(=O)NC(C)(C)C(=O)Nc1ccccc1 (centres unmarked): 6.1

1. CC(C)CC(c1ccc2c(cnn2-c2ccc(F)cc2)c1)C(C)(C)CNC(=O)NC(C)C (centres unmarked)
2. CCCC(CNS(=O)(=O)CC(F)(F)F)C(c1ccccc1)c1ccc2c(cnn2-c2ccc(F)cc2)c1 (centres unmarked)
QUERY: Pick one: 1 or 2 . Which has the bigger Ki number? Answer by stating the label of the chosen item.
RESULT: 2
(2: 6.1 nM, 1: 1.1 nM)

P. CC(C)(C)NC(=O)NCC(C)(C)C(c1ccc2c(cnn2-c2ccc(F)cc2)c1)C1CC1 (centres unmarked)
Q. CC(C)CC(c1ccc2c(cnn2-c2ccc(F)cc2)c1)C(C)(C)CNC(=O)NC1CC1 (centres unmarked)
R. CC(C)CC(c1ccc2c(cnn2-c2ccc(F)cc2)c1)C(C)(C)CNC(=O)N(C)C (centres unmarked)
QUERY: Endpoint returns the given molecules ordered by ascending Ki. Sort the labels as requested; that list is your answer.
RESULT: R, Q, P
(R: 1.4 nM, Q: 3.1 nM, P: 8.4 nM)
